- measurement_protocol: Drug metabolism in human liver microsomes after 20 mins
- Format: ADME, Microsome
- conditions_used: read-out: Drug metabolism
metric_name: metabolised at 20 min (%)

Guide cases for metabolised at 20 min, answers given:
query_smiles: COc1cccc(NC(=O)Cc2nc(N3CCOCC3)cc(=O)[nH]2)c1
quantity_unit: %
metabolised at 20 min: 76
//
query_smiles: O=C(Cc1nc(N2CCOCC2)cc(=O)[nH]1)Nc1cccc(F)c1
quantity_unit: %
metabolised at 20 min: 55
//
query_smiles: O=C(Cc1nc(N2CCOCC2)cc(=O)[nH]1)Nc1ccc(F)c(Cl)c1
quantity_unit: %
metabolised at 20 min: 40
//
query_smiles: O=C(Cc1nc(N2CCOCC2)cc(=O)[nH]1)Nc1ccc(F)cc1
quantity_unit: %
metabolised at 20 min: 24
//
query_smiles: O=C(Cc1nc(N2CCOCC2)cc(=O)[nH]1)Nc1cccc(Br)c1
quantity_unit: %
metabolised at 20 min: 75
//
query_smiles: Cc1cc(NC(=O)Cc2nc(N3CCOCC3)cc(=O)[nH]2)ccc1F
quantity_unit: %
metabolised at 20 min: 91
//
query_smiles: O=C(Cc1nc(N2CCOCC2)cc(=O)[nH]1)Nc1cccc(Cl)c1
quantity_unit: %
metabolised at 20 min: 43
//
query_smiles: O=C(Cc1nc(N2CCOCC2)cc(=O)[nH]1)Nc1ccc(F)c(Br)c1
quantity_unit: %
metabolised at 20 min: 42

P = O=C(Cc1nc(N2CCOCC2)cc(=O)[nH]1)Nc1ccccc1
Q = Cc1cccc(NC(=O)Cc2nc(N3CCOCC3)cc(=O)[nH]2)c1
Q) Lab notebook, comparison: P versus Q , higher metabolised at 20 min goes to which? Lab note: record the label of whichever item you select.
A) Q

P = O=C(Cc1nc(N2CCOCC2)cc(=O)[nH]1)Nc1ccc(F)c(F)c1
Q = Cn1c(CC(=O)Nc2ccc(F)c(Cl)c2)nc(N2CCOCC2)cc1=O
R = COc1cc(NC(=O)Cc2nc(N3CCOCC3)cc(=O)[nH]2)ccc1F
Q) Ordering criterion: metabolised at 20 min; begin with the maximum. List the labels according to the requested ordering.
A) R, Q, P

----------
- measurement_protocol: Inhibition of Akt phosphorylation at S473 in PTEN deficient human PC3 cells
- Assay type: cell-based
- conditions_used: PC-3
pIC50: −log10 of the molar value.
metric_name: pIC50

Some molecules with known pIC50 results, for comparison:
query_smiles: O=C(Cc1nc(N2CCOCC2)cc(=O)[nH]1)Nc1cccc(Br)c1
assay_value: 8.00
//
query_smiles: COc1cc(NC(=O)Cc2nc(N3CCOCC3)cc(=O)[nH]2)ccc1F
assay_value: 7.01
//
query_smiles: O=C(Cc1nc(N2CCOCC2)cc(=O)[nH]1)Nc1ccccc1
assay_value: 7.17
//
query_smiles: O=C(Cc1nc(N2CCOCC2)cc(=O)[nH]1)Nc1cccc(F)c1
assay_value: 7.13
//
query_smiles: Cc1cccc(NC(=O)Cc2nc(N3CCOCC3)cc(=O)[nH]2)c1
assay_value: 7.35

a = O=C(Cc1nc(N2CCOCC2)cc(=O)[nH]1)Nc1ccc(F)c(F)c1
b = COc1cc(NC(=O)Cc2nc(N3CCOCC3)cc(=O)n2C)ccc1F
c = O=C(Cc1nc(N2CCOCC2)cc(=O)[nH]1)Nc1ccccc1F
Q) Could you please order the items by pIC50, going from the lowest number to the highest? // format: requested-order list of labels
A) c, b, a
(c: 6.46, b: 7.00, a: 7.26)

I = O=C(Cc1nc(N2CCOCC2)cc(=O)[nH]1)Nc1cccc(Cl)c1
II = COc1cccc(NC(=O)Cc2nc(N3CCOCC3)cc(=O)[nH]2)c1
Q) // task: argmin of pIC50 over [ I , II ] API: response body contains the label of the selected item.
A) I
(I: 7.00, II: 7.33)

I = Cn1c(CC(=O)Nc2ccc(F)c(Br)c2)nc(N2CCOCC2)cc1=O
II = O=C(Cc1nc(N2CCOCC2)cc(=O)[nH]1)Nc1ccc(F)c(Br)c1
Q) Returns: the label, I or II , whose recorded pIC50 is the lower number. // output: label of the selected item
A) I

I = Cc1cc(NC(=O)Cc2nc(N3CCOCC3)cc(=O)[nH]2)ccc1F
II = Cc1ccccc1NC(=O)Cc1nc(N2CCOCC2)cc(=O)[nH]1
Q) Task for the reader: decide whether I or II has the larger pIC50. To answer, give the label that identifies your chosen option.
A) I

P = Cn1c(CC(=O)Nc2ccc(F)c(Cl)c2)nc(N2CCOCC2)cc1=O
Q = O=C(Cc1nc(N2CCOCC2)cc(=O)[nH]1)Nc1ccc(Cl)cc1
Q) Field: lower pIC50 | Options: P / Q Record your answer as the label of the chosen record.
A) Q
(Q: 5.85, P: 7.10)

A = Cn1c(CC(=O)Nc2ccc(F)cc2)nc(N2CCOCC2)cc1=O
B = Cn1c(CC(=O)Nc2ccccc2)nc(N2CCOCC2)cc1=O
Q) Lab notebook, comparison: A versus B , higher pIC50 goes to which? Give the label under which the chosen entry appears.
A) A

A = Cn1c(CC(=O)Nc2ccc(F)c(F)c2)nc(N2CCOCC2)cc1=O
B = O=C(Cc1nc(N2CCOCC2)cc(=O)[nH]1)Nc1ccc(F)c([N+](=O)[O-])c1
C = O=C(Cc1nc(N2CCOCC2)cc(=O)[nH]1)Nc1ccc(F)c(Cl)c1
Q) Please list the entries, largest pIC50 first. Put the labels in the requested order and list them out.
A) C, A, B

P = COC(=O)c1cc(NC(=O)Cc2nc(N3CCOCC3)cc(=O)[nH]2)ccc1F
Q = O=C(Cc1nc(N2CCOCC2)cc(=O)[nH]1)Nc1ccc(F)cc1
Q) Between the entries labelled P and Q , which has a larger pIC50 value on record? Identify your pick by its label.
A) Q

----------
- measurement_protocol: Volume of distribution at steady state in SCID mouse at 3 mg/kg, iv
- Type: ADME, organism-based
- Parameters: dose 3 mg/kg, route intravenous
- conditions_used: in vivo, read-out: Vdss
metric_name: Vd (L/kg)
Just the number please, in L/kg, no unit attached.

Vd in this record for Cn1c(CC(=O)Nc2ccc(F)c(Cl)c2)nc(N2CCOCC2)cc1=O : 1.3

----------
- measurement_protocol: Equilibrium solubility of the compound in phosphate buffer at pH 7.4 after 16 hrs by HPLC analysis
- Format: physicochemical
metric_name: solubility thermodynamic at 16 h (µM)

query_smiles: COc1cccc(NC(=O)Cc2nc(N3CCOCC3)cc(=O)[nH]2)c1
quantity_unit: µM
assay_value: 38
--
query_smiles: O=C(Cc1nc(N2CCOCC2)cc(=O)[nH]1)Nc1ccc(F)c(F)c1
quantity_unit: µM
assay_value: 3
--
query_smiles: O=C(Cc1nc(N2CCOCC2)cc(=O)[nH]1)Nc1ccc(F)cc1
quantity_unit: µM
assay_value: 45

I = Cc1cc(NC(=O)Cc2nc(N3CCOCC3)cc(=O)[nH]2)ccc1F
II = O=C(Cc1nc(N2CCOCC2)cc(=O)[nH]1)Nc1cccc(Br)c1
Q) Kindly identify which of I and II has the larger recorded solubility thermodynamic at 16 h value. State your choice using its label.
A) II
(II: 6 µM, I: 3 µM)

P = O=C(Cc1nc(N2CCOCC2)cc(=O)[nH]1)Nc1ccc(F)c(Br)c1
Q = COc1cc(NC(=O)Cc2nc(N3CCOCC3)cc(=O)[nH]2)ccc1F
R = Cc1cccc(NC(=O)Cc2nc(N3CCOCC3)cc(=O)[nH]2)c1
S = O=C(Cc1nc(N2CCOCC2)cc(=O)[nH]1)Nc1ccccc1
Q) // smallest solubility thermodynamic at 16 h at index 0, largest at the end Field: ranking. Enter the labels in the order requested.
A) R, P, Q, S
(R: 3 µM, P: 5 µM, Q: 33 µM, S: 73 µM)

----------
- measurement_protocol: Terminal elimination half life in SCID mouse at 10 mg/kg, po
- Assay type: ADME, organism-based
- Parameters: dose 10 mg/kg, route oral
- conditions_used: in vivo, read-out: beta t1/2 (converted)
metric_name: half-life (h)
Your answer should be a plain number; it is taken to be in h.

Sure, the documented half-life for Cn1c(CC(=O)Nc2ccc(F)c(Cl)c2)nc(N2CCOCC2)cc1=O is 1.4

----------
- measurement_protocol: Apparent permeability across human Caco2/TC7 cells
- Format: ADME, cell-based
- conditions_used: Caco-2
metric_name: Papp (×10⁻⁶ cm/s)

query_smiles: O=C(Cc1nc(N2CCOCC2)cc(=O)[nH]1)Nc1ccc(F)c(F)c1
assay_value: 0.8

query_smiles: Cc1cc(NC(=O)Cc2nc(N3CCOCC3)cc(=O)[nH]2)ccc1F
assay_value: 0.6

query_smiles: O=C(Cc1nc(N2CCOCC2)cc(=O)[nH]1)Nc1cccc(Cl)c1
assay_value: 0.8

query_smiles: O=C(Cc1nc(N2CCOCC2)cc(=O)[nH]1)Nc1ccc(F)c(Br)c1
assay_value: 0.8

query_smiles: Cc1cccc(NC(=O)Cc2nc(N3CCOCC3)cc(=O)[nH]2)c1
assay_value: 1.4

I = O=C(Cc1nc(N2CCOCC2)cc(=O)[nH]1)Nc1ccccc1
II = O=C(Cc1nc(N2CCOCC2)cc(=O)[nH]1)Nc1ccc(F)c(Cl)c1
III = O=C(Cc1nc(N2CCOCC2)cc(=O)[nH]1)Nc1cccc(Br)c1
IV = COc1cccc(NC(=O)Cc2nc(N3CCOCC3)cc(=O)[nH]2)c1
V = COc1cc(NC(=O)Cc2nc(N3CCOCC3)cc(=O)[nH]2)ccc1F
Q) Order each entry by recorded Papp, climbing from the minimum. I'd appreciate it if you listed the labels in the requested order.
A) V, IV, I, II, III

1 = O=C(Cc1nc(N2CCOCC2)cc(=O)[nH]1)Nc1ccc(F)cc1
2 = Cn1c(CC(=O)Nc2ccc(F)c(Cl)c2)nc(N2CCOCC2)cc1=O
Q) Min Papp? 1 | 2 Reply with the label of the item you choose.
A) 1
(1: 0.6 ×10⁻⁶ cm/s, 2: 6.6 ×10⁻⁶ cm/s)

src = ChEMBL document CHEMBL2150988
